- Organism: Rattus norvegicus
- assay_remarks: DrugMatrix - Regimen: Daily Repeat
- Format: toxicity, organism-based, Sprague-Dawley
- Parameters: regimen Daily Repeat, gender Male, age 6-8 weeks
- condition: in vivo, po, 0 mg/kg, 72 h, tissue Plasma, route oral GAVAGE, dose level Control, time 3 day, […]
Kindly state ASPARTATE AMINOTRANSFERASE for each of the entries shown.

Some entries whose results are on file:
[
  {
    "molecule": "O=NN(CCCl)C(=O)NC1CCCCC1 [LOMUSTINE]",
    "ASPARTATE AMINOTRANSFERASE": "83.83 u/L"
  },
  {
    "molecule": "C[C@H]1O[C@@H](O[C@H]2[C@@H](O)C[C@H](O[C@H]3[C@@H](O)C[C@H](O[C@H]4CC[C@@]5(C)[C@H](CC[C@@H]6[C@@H]5C[C@@H](O)[C@]5(C)[C@@H](C7=CC(=O)OC7)CC[C@]65O)C4)O[C@@H]3C)O[C@@H]2C)C[C@H](O)[C@@H]1O [DIGOXIN]",
    "ASPARTATE AMINOTRANSFERASE": "83.17 u/L"
  },
  {
    "molecule": "O=c1oc2ccccc2c(O)c1Cc1c(O)c2ccccc2oc1=O [DICUMAROL]",
    "ASPARTATE AMINOTRANSFERASE": "89.83 u/L"
  },
  {
    "molecule": "CC(C)(Oc1ccc(Cl)cc1)C(=O)O [CLOFIBRIC ACID]",
    "ASPARTATE AMINOTRANSFERASE": "98.33 u/L"
  },
  {
    "molecule": "OC(Cn1cncn1)(Cn1cncn1)c1ccc(F)cc1F [FLUCONAZOLE]",
    "ASPARTATE AMINOTRANSFERASE": "97.17 u/L"
  }
]

Give one value of ASPARTATE AMINOTRANSFERASE per listed molecule.
1. C[C@@H]1CN(c2c(F)c(N)c3c(=O)c(C(=O)O)cn(C4CC4)c3c2F)C[C@H](C)N1 [SPARFLOXACIN]
2. CCOC(=O)C1=C(COCCN)NC(C)=C(C(=O)OC)C1c1ccccc1Cl (centres undefined) [AMLODIPINE]

1: 83.83 u/L; 2: 83.83 u/L

Give one value of ASPARTATE AMINOTRANSFERASE per listed molecule.
1. Cc1ccc(-c2cc(C(F)(F)F)nn2-c2ccc(S(N)(=O)=O)cc2)cc1 [CELECOXIB]
2. CCC(C)n1ncn(-c2ccc(N3CCN(c4ccc(OCC5COC(Cn6cncn6)(c6ccc(Cl)cc6Cl)O5)cc4)CC3)cc2)c1=O (centres undefined) [ITRACONAZOLE]

["97.17 u/L", "97.17 u/L"]

----------
- Species on record: Rattus norvegicus
- assay_remarks: DrugMatrix - Regimen: Daily Repeat
- Assay type: toxicity, organism-based, Sprague-Dawley
- Design: regimen Daily Repeat, gender Male, age 6-8 weeks
- condition: in vivo, po, 0 mg/kg, 72 h, tissue Plasma, route oral GAVAGE, dose level Control, time 3 day, vehicle 100 % WATER
Label No if LACTATE DEHYDROGENASE falls below 200 u/L; label Yes in every other case.

For orientation, consider the following solved cases.
[
  {
    "compound": "C[C@H](CS)C(=O)N1CCC[C@H]1C(=O)O",
    "discrete_label": "Yes"
  },
  {
    "compound": "COc1cc2nc(N3CCN(C(=O)C4COc5ccccc5O4)CC3)nc(N)c2cc1OC (centres undefined)",
    "discrete_label": "No"
  }
]

For this compound, is measured LACTATE DEHYDROGENASE 200 u/L or higher? C=CCC1(C(C)CCC)C(=O)NC(=O)NC1=O (centres undefined) No

For this compound, is measured LACTATE DEHYDROGENASE 200 u/L or higher? `N[C@@H](Cc1ccc(O)c(O)c1)C(=O)O` No

For this compound, is measured LACTATE DEHYDROGENASE 200 u/L or higher? `Clc1cccc(Cl)c1N=C1NCCN1` Yes

For this compound, is measured LACTATE DEHYDROGENASE 200 u/L or higher? `Cc1onc(-c2ccccc2Cl)c1C(=O)N[C@@H]1C(=O)N2[C@@H]1SC(C)(C)[C@@H]2C(=O)O` Yes

For this compound, is measured LACTATE DEHYDROGENASE 200 u/L or higher? `c1ccc([C@H]2CN3CCSC3=N2)cc1` Yes

For this compound, is measured LACTATE DEHYDROGENASE 200 u/L or higher? `CN(C)CCCN1c2ccccc2Sc2ccc(Cl)cc21` No

For this compound, is measured LACTATE DEHYDROGENASE 200 u/L or higher? `CNNCc1ccc(C(=O)NC(C)C)cc1` No

----------
- Species on record: Rattus norvegicus
- assay_remarks: DrugMatrix - Regimen: Daily Repeat
- Assay type: toxicity, organism-based, Sprague-Dawley
- Design: regimen Daily Repeat, gender Male, age 6-8 weeks
- condition: in vivo, po, 0 mg/kg, 72 h, tissue Blood, route oral GAVAGE, dose level Control, time 3 day, vehicle 100 % WATER
parameter_measured: HEMATOCRIT (%)
Give bare numbers, in %.

[
  {
    "molecule": "Cc1onc(-c2ccccc2Cl)c1C(=O)N[C@@H]1C(=O)N2[C@@H]1SC(C)(C)[C@@H]2C(=O)O [CLOXACILLIN]",
    "HEMATOCRIT, %": 36.35
  }
]

Give one value of HEMATOCRIT per listed molecule.
1. C[C@H]1c2cccc(O)c2C(=O)C2=C(O)[C@]3(O)C(=O)C(C(N)=O)=C(O)[C@@H](N(C)C)[C@@H]3[C@@H](O)[C@@H]21.O [DOXYCYCLINE]
2. CN(C)CCCN1c2ccccc2Sc2ccc(Cl)cc21 [CHLORPROMAZINE]
3. Clc1cccc(Cl)c1N=C1NCCN1 [CLONIDINE]
4. Nc1c2c(nc3ccccc13)CCCC2 [TACRINE]
5. C=CCC1(C(C)CCC)C(=O)NC(=O)NC1=O (centres undefined) [SECOBARBITAL]
6. C[C@](N)(Cc1ccc(O)c(O)c1)C(=O)O [METHYLDOPA]

1: 35.33; 2: 38.5; 3: 35.6; 4: 35.07; 5: 33.63; 6: 33.43

Give one value of HEMATOCRIT per listed molecule.
1. NCCCCCC(=O)O [AMINOCAPROIC ACID]
2. N[C@@H](Cc1ccc(O)c(O)c1)C(=O)O [LEVODOPA]

1: 36.35; 2: 35.33

----------
Kindly state CHOLESTEROL for each of the entries shown.
- Species on record: Rattus norvegicus
- assay_remarks: DrugMatrix - Regimen: Daily Repeat
- Format: toxicity, organism-based, Sprague-Dawley
- Design: regimen Daily Repeat, gender Male, age 6-8 weeks
- condition: in vivo, po, 0 mg/kg, 72 h, tissue Plasma, route oral GAVAGE, dose level Control, time 3 day, vehicle .5 % CMC
One number for each entry, in mg/dL.

Some entries whose results are on file:
[
  {
    "compound": "N=C(N)NCCN1CCCCCCC1",
    "numeric_result": 64.33
  },
  {
    "compound": "NC1=NC(=O)C(c2ccccc2)O1 (centres undefined)",
    "numeric_result": 76.5
  },
  {
    "compound": "CCCCc1oc2ccccc2c1C(=O)c1cc(I)c(OCCN(CC)CC)c(I)c1",
    "numeric_result": 72.17
  },
  {
    "compound": "CCOP(=S)(OCC)Oc1nc(Cl)c(Cl)cc1Cl",
    "numeric_result": 78.83
  },
  {
    "compound": "COc1nc(C)nc(Cl)c1N=C1NCCN1",
    "numeric_result": 68.83
  }
]

Give one value of CHOLESTEROL per listed compound.
1. Cc1ccc(/N=C/N(C)/C=N/c2ccc(C)cc2C)c(C)c1
2. C1CCC(C(CC2CCCCN2)C2CCCCC2)CC1 (centres undefined)

1: 71.17; 2: 78.67

Give one value of CHOLESTEROL per listed compound.
1. CC(C)(C)NC(=O)[C@@H]1C[C@@H]2CCCC[C@@H]2CN1C[C@@H](O)[C@H](Cc1ccccc1)NC(=O)[C@H](CC(N)=O)NC(=O)c1ccc2ccccc2n1
2. Cc1nc2n(c(=O)c1CCN1CCC(c3noc4cc(F)ccc34)CC1)CCCC2
3. ClC(Br)Br
4. Nc1ccn([C@H]2CC[C@@H](CO)O2)c(=O)n1
5. ClC(Cl)Br
6. O=C(CCCN1CC=C(n2c(=O)[nH]c3ccccc32)CC1)c1ccc(F)cc1

[74, 72.17, 74.5, 78.33, 74.5, 71.17]

Give one value of CHOLESTEROL per listed compound.
1. Cc1ccc2cc3c(ccc4ccccc43)c3c2c1CC3
2. CC1CC(OC(=O)C(O)c2ccccc2)CC(C)(C)C1 (centres undefined) [CYCLANDELATE]
3. OCCN(CCO)c1nc(N2CCCCC2)c2nc(N(CCO)CCO)nc(N3CCCCC3)c2n1
4. CCn1cc(C(=O)O)c(=O)c2cc(F)c(N3CCNCC3)cc21

1. 96.83
2. 64.33
3. 64.33
4. 71.17

Give one value of CHOLESTEROL per listed compound.
1. CCCN1C[C@H](CSC)C[C@@H]2c3cccc4[nH]cc(c34)C[C@H]21 [PERGOLIDE]
2. CN1CCN(CCCN2c3ccccc3Sc3ccc(Cl)cc32)CC1

[76.67, 77]
